Where these numbers come from: patent US20250011363A1

# Assayed Target: acetylcholine receptor
# Assay Info: SPR, receptor immobilised on chip, peptide at 10 uM
Experimental Readout: Binding affinity (RU)
Please reply with the bare figure in RU and do not write the unit itself.

Known Binding affinity (RU) results, listed for orientation:
KPEDKK [6mer-2-944]	35
KKCERK [6mer-2-945]	42
RASHRR [6mer-2-937]	35

Next item in the queue.
Request: Look up Binding affinity (RU): RDEDKR [6mer-2-941]
Response: 33
